System: IGROV1 ovarian
ASSAY REMARKS: NCI tumour cell line growth inhibition, 48 h; in the data active = GI50 below about 0.43 µM; inactive = the rest
Outcomes: active, inactive

• Nc1nc(N)c2cc(Sc3ccc4ccccc4c3)ccc2n1 = inactive
• Clc1ccc(/C=C/c2ccc3ccccc3n2)cc1 = inactive
• CC(C)(C)[Si](C)(C)OC1[C@@H](CNC(N)=O)O[C@@H](n2cnc3c(NC(=O)Nc4ccccc4)ncnc32)[C@H]1O[Si](C)(C)C(C)(C)C (stereo partly specified) = inactive
• COc1cccc(CNc2ncnc3c2ncn3C2OC(CO)C(O)C2O)c1O (stereo unspecified) = active
• CCCCCCCCCc1ccc(OCCOCCOCCOCCOCCOCCOCCOCCOCCO)cc1 = inactive
• O=C(Nc1cccc2[nH]c(C(F)(F)F)nc12)c1cc(Cl)ccc1Cl = inactive
• FC(F)(F)c1ccc(-c2nn3ncccc3c2-c2ccnc(Nc3ccc4c(c3)OCCO4)n2)cc1 = inactive
• O=C(NN1C(=O)CSC1c1cccc(Cl)c1)C(O)c1ccccc1 (stereo unspecified) = inactive
• CCCC1(CN2c3ccccc3Sc3ccc(Cl)cc32)CCN(CC)C1 (stereo unspecified) = inactive
• O=C1c2cccnc2-c2nc(-c3cccnc3)cc3c2c1nc1ccccc13 = inactive
• CCn1cc(/C=C2\Oc3cc(OCC#N)ccc3C2=O)c2cc(OC)ccc21 = inactive
• Cc1cc(N/N=C/c2nc(-c3ccc(Cl)cc3)oc2C)c2cc(Br)ccc2n1 = inactive
• CCCN(CCC)c1ccc(C=O)c(Cl)c1 = inactive
• Cc1cn(-c2cccc(NC(=O)c3ccc(C)c(Nc4nccc(-c5cccnc5)n4)c3)c2)cn1 = inactive
• CCN1[C@@H](C(=O)NC23CCC(C(=O)O)(CC2)CC3)[C@H](c2cccc(Cl)c2F)[C@]2(C(=O)Nc3cc(Cl)ccc32)C12CCCCC2 = inactive
• CCCCCCNCCCNc1c2cc(OC)ccc2nc2cccc([N+](=O)[O-])c12 = inactive

====

Tested on: SF-539 CNS
ASSAY REMARKS: NCI tumour cell line growth inhibition, 48 h
ASSAY METRIC: GI50

• COc1ccc(-c2cnnn2-c2nonc2-n2cccc2)cc1OC = 3.44 µM
• CN(C)CCCOc1cccc(NC2=C(Cl)C(=O)C(Nc3cccc(OCCCN(C)C)c3)=C(Cl)C2=O)c1 = 1.8 µM
• CCCN(CCC)c1ccc(C=O)c(Cl)c1 = 23.8 µM
• CC(NC(=O)Cc1ccc(C(F)(F)P(=O)(OCc2ccc([N+](=O)[O-])o2)N(C)CCCCCl)cc1)c1ccc(OCC2CCCCC2)c(C(N)=O)c1 (stereo unspecified) = 6.33 µM
• CCCC1(CN2c3ccccc3Sc3ccc(Cl)cc32)CCN(CC)C1 (stereo unspecified) = 1.85 µM
• FC(F)(F)c1ccc(-c2nn3ncccc3c2-c2ccnc(Nc3ccc4c(c3)OCCO4)n2)cc1 = > 19.7 µM

====

The following are reported GI50 results, target or system NCI-H460 lung.
ASSAY METRIC: GI50

* CCOC(=O)c1ccc(NC(=O)NC2=NCCS2)cc1 | 3200 nM
* c1ccc(-c2nc3n(c2-c2ccc4c(c2)OCO4)CCC3)nc1 | 4510 nM
* CCCN(CCC)c1ccc(C=O)c(Cl)c1 | 2190 nM
* CN(C)CCCOc1cccc(NC2=C(Cl)C(=O)C(Nc3cccc(OCCCN(C)C)c3)=C(Cl)C2=O)c1 | 1800 nM
* CCN1[C@@H](C(=O)NC23CCC(C(=O)O)(CC2)CC3)[C@H](c2cccc(Cl)c2F)[C@]2(C(=O)Nc3cc(Cl)ccc32)C12CCCCC2 | 90.9 nM

====

Test system: MCF7 breast
ASSAY REMARKS: NCI tumour cell line growth inhibition, 48 h
Each record here notes measured TGI.
ASSAY METRIC: TGI (µM)

* CC(/C=C/C(O)=C1/C(=O)CNC1=O)=C\[C@@H](C)[C@H]1O[C@@]2(C)O[C@H](C(=O)[C@@H]3O[C@@]32C)[C@@H]1C | 39.8
* Cc1cc(CCl)c(C)cc1CCl | 2.32
* O=C(Nc1cccc2[nH]c(C(F)(F)F)nc12)c1cc(Cl)ccc1Cl | 49.7
* COc1ccc(Nc2nc(Nc3cc(C)[nH]n3)c3cc(OC)c(OC)cc3n2)cc1 | 2.05

====

Tested on: A498 renal
ASSAY REMARKS: NCI tumour cell line growth inhibition, 48 h
ASSAY METRIC: TGI

- CCn1cc(/C=C2\Oc3cc(OCC#N)ccc3C2=O)c2cc(OC)ccc21: > 100 µM
- Clc1ccc(-c2cc(-c3cc4cc(Br)ccc4nc3Cl)on2)cc1: 41.9 µM
- CC(C)(C)[Si](C)(C)OC1[C@@H](CNC(N)=O)O[C@@H](n2cnc3c(NC(=O)Nc4ccccc4)ncnc32)[C@H]1O[Si](C)(C)C(C)(C)C (stereo partly specified): 8.04 µM
- c1cc2c3c(c1)c1cc4c(cc1c[n+]3CC2)OCO4: 14.9 µM
- CCOC(=O)c1sc2c(c1OC(=O)c1cc(OC)c(OC)c(OC)c1)c(=O)n(-c1ccccc1)c(=S)n2-c1ccccc1: > 100 µM
- CCOc1cc(/C=C/C(=O)C(C(=O)/C=C/c2ccc(OC(=O)CNc3nc4ccccc4[nH]3)c(OCC)c2)C(=O)CNc2nc3ccccc3[nH]2)ccc1OC(=O)CNc1nc2ccccc2[nH]1: 3.87 µM
- O=c1nc2ccc([N+](=O)[O-])cc2[n+]([O-])[nH]1: > 100 µM
- COc1cc(OC)c2sc(-c3ccc(-n4cncc4-c4ccc(OC)c(OC)c4)cc3)nc2c1: > 100 µM
- CC(Oc1ccc(Oc2cnc3ccc(Cl)cc3n2)cc1)C(=O)O (stereo unspecified): > 100 µM
- COc1ccc(C2=NC(=O)NC2c2ccc(OC)cc2)cc1 (stereo unspecified): 29.1 µM
- O=C1c2cccnc2-c2nc(-c3cccnc3)cc3c2c1nc1ccccc13: 46.8 µM
- OC1=CN=COc2ccccc21: > 100 µM
- CN(C)c1ccc(/C=C(\NC(=O)c2ccccc2)c2nc3ccc4c(c3[nH]2)C(=O)c2ccccc2C4=O)cc1: > 100 µM
- O=C(NN1C(=O)CSC1c1cccc(Cl)c1)C(O)c1ccccc1 (stereo unspecified): > 100 µM
- Nc1nc(N)c2cc(Sc3ccc4ccccc4c3)ccc2n1: 17.4 µM
- C/C(=N\NC(=O)c1ccc(Cl)cc1)c1nc2ncccc2[nH]1: > 100 µM
- COc1ccccc1-c1cc(=O)c2cc(C)c(C)c(C(=O)O)c2o1: > 100 µM
- Cc1nc2ccc(S(=O)(=O)NS(=O)(=O)c3ccc(-c4ccccc4)cc3)cc2c(=O)n1NS(=O)(=O)c1ccc(-c2ccccc2)cc1: > 100 µM
- CCOP(=O)(OCC)/C(C#N)=C/c1ccccn1: > 100 µM
- Cc1cc(CCl)c(C)cc1CCl: 3.96 µM
- Cc1cccc2[nH]c3c(c(O)cc4[nH]c5cccc(C)c5c(=O)c43)c(=O)c12: > 10 µM

====

# TGI annotations
Tested on: HL-60(TB) leukemia
ASSAY REMARKS: NCI tumour cell line growth inhibition, 48 h
ASSAY METRIC: TGI (µM)

* COc1cc(C(=O)N[C@H]2CCc3cc(OC)c(OC)c(OC)c3-c3ccc(SC)c(=O)cc32)cc(OC)c1OC | 0.578
* Cc1cc(CCl)c(C)cc1CCl | 13.2
* COc1cccc(-c2cc(=O)c3cc4c(cc3[nH]2)OCO4)c1 | 0.896
* CC(/C=C/C(O)=C1/C(=O)CNC1=O)=C\[C@@H](C)[C@H]1O[C@@]2(C)O[C@H](C(=O)[C@@H]3O[C@@]32C)[C@@H]1C | 80.6
* N#CC1=C(N)N(/N=C/c2ccccc2)C(c2ccccc2)C1(C#N)C#N (configuration not stated) | 5.47
* CC(O)c1cc2c(s1)C(=O)c1c(C(C)O)csc1C2=O (configuration not stated) | 0.0415

====

System: SN12C renal
ASSAY REMARKS: NCI tumour cell line growth inhibition, 48 h; in the data active = GI50 below about 0.43 µM; inactive = the rest
Classes used: class 1 = active, class 0 = inactive

* Cc1cc(CCl)c(C)cc1CCl | class 0
* CC(NC(=O)Cc1ccc(C(F)(F)P(=O)(OCc2ccc([N+](=O)[O-])o2)N(C)CCCCCl)cc1)c1ccc(OCC2CCCCC2)c(C(N)=O)c1 (centres undefined) | class 0
* CN(C)CCCOc1cccc(NC2=C(Cl)C(=O)C(Nc3cccc(OCCCN(C)C)c3)=C(Cl)C2=O)c1 | class 1
* CCOC(=O)c1sc(-c2ccc(OS(=O)(=O)C[C@]34CCC(CC3=O)C4(C)C)c(C=O)c2)nc1C | class 0
* Nc1c(C(=O)c2cccc(C#CCN3CCCCC3)c2)cnn1-c1ccc(F)cc1 | class 0
* Cc1cc(NCc2cc(Nc3ccnc4cc(Cl)ccc34)ccc2F)nc(N2CCOCC2)n1 | class 0
* FC(F)(F)c1ccc(-c2nn3ncccc3c2-c2ccnc(Nc3ccc4c(c3)OCCO4)n2)cc1 | class 0
* COc1ccc(-c2c(C#N)c(N)nc(N3CCOCC3)c2C#N)cc1 | class 0
* Cn1c(=O)n(C)c2cc(CNCCNc3ccnc4cc(Cl)ccc34)ccc21 | class 0
* CCCCCCNCCCNc1c2cc(OC)ccc2nc2cccc([N+](=O)[O-])c12 | class 1
* O=C1c2cccnc2-c2nc(-c3cccnc3)cc3c2c1nc1ccccc13 | class 0
* CCCCCCCCCc1ccc(OCCOCCOCCOCCOCCOCCOCCOCCOCCO)cc1 | class 0
* COc1cc(F)ccc1-c1cc(Nc2cc(CS(C)(=N)=O)ccn2)ncc1F (centres undefined) | class 1
* COc1cc([C@@H]2c3cc4c(cc3[C@H](OC(C)=O)[C@H]3COC(=O)[C@@H]23)OCO4)cc(OC)c1OC | class 0
* COc1cccc(CNc2ncnc3c2ncn3C2OC(CO)C(O)C2O)c1O (centres undefined) | class 1
* Cc1ccc(S(=O)(=O)c2nc(-c3ccccc3)oc2S(C)(=O)=O)cc1 | class 0
* CCCC1(CN2c3ccccc3Sc3ccc(Cl)cc32)CCN(CC)C1 (centres undefined) | class 0
* COc1cc(C(=O)N[C@H]2CCc3cc(OC)c(OC)c(OC)c3-c3ccc(SC)c(=O)cc32)cc(OC)c1OC | class 1
* CC(=O)OC(C(=O)[O][Sn]([CH3])([CH3])[CH3])c1ccccc1 (centres undefined) | class 0
